Listed below: z-score values for each entry.
# ASSAY_TEXT: viability profiling in MM1S myeloma cells – cell-based, resazurin fluorescence, basal, 24 h, PK04 Diversity Set, profiling panel (AID 1174);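 further: MM1S multiple myeloma cell line; test concentration not given here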
# REPORTED_CONDITIONS: higher = more signal, called active from +8 up or from −8 down
Active and inactive are the calls of the source.

>  <COMPOUND>
COc1ccc([Si](C)(C)[C@@H]2[C@@H](CC(=O)N(CCO)Cc3ccccc3)O[C@]3(C(=O)N(Cc4cccc(N5CCCCC5=O)c4)c4ccccc43)[C@H]2C)cc1

>  <RESULT>
-1.72 (inactive)

$$$$
>  <COMPOUND>
C=CCN1C(=O)[C@]2(CCC(=O)OC(C)(C)C)N=C(c3ccc(OCCCO)cc3)O[C@@H]2c2ccccc21

>  <RESULT>
-3.44 (inactive)

$$$$
>  <COMPOUND>
O=C(Cc1ccccc1)[C@H]1C2C=CCCC(c3ccccc3)=C2CN1Cc1ccccc1 (stereo partly specified)

>  <RESULT>
0.806 (inactive)

$$$$
>  <COMPOUND>
CCCCC(CC)C(O)C1C=CC2C(=O)N(c3ccccc3)C(=O)C2N1Nc1ccccc1F (stereo unspecified)

>  <RESULT>
0.888 (inactive)

$$$$
>  <COMPOUND>
COc1ccccc1CN1C(=O)c2ccccc2[C@](Cc2ccccc2I)(C(=O)O)[C@@H]1c1ccc(CO)cc1

>  <RESULT>
-0.0504 (inactive)

$$$$

Req: Fill blank: measured z-score of the compound CC(C)N1C(=O)c2ccccc2[C@@H](C(=O)NCCN2CCOCC2)[C@@H]1c1ccc(CO)cc1 is ____.
Resp: -0.401 (inactive)

Req: State the recorded z-score for this entry: CCCCCN1CC=CC23O[C@@H]4/C=C\CCCOC(=O)C4[C@H]2C(=O)N(C(C)CO)[C@@H]3C1=O (stereo partly specified)
Resp: 0.295 (inactive)

Req: I would be grateful if you could share the reported z-score for CC(C)N1C(=O)C[C@@](C(=O)O)(c2ccc([N+](=O)[O-])cc2)[C@H]1c1ccc(CO)cc1 .
Resp: 0.305 (inactive)

Req: Tell me the measured z-score of CCOC(=O)C1=C[C@@H](C(C)(C)C)N(S(=O)(=O)c2ccc(C)cc2)[C@H]1c1cccc2ccccc12 , please.
Resp: -0.835 (inactive)

Req: So what's the measured z-score for this one? COc1cc(OC)c(C(O)C2C=CC3C(=O)N(Cc4ccccc4)C(=O)C3N2n2cnnc2)cc1Br (stereo unspecified)
Resp: -0.982 (inactive)

Req: Using the record for CC1=C2[C@@H](CCc3ccccc3)OB(O)C[C@@H]2[C@@H]2C(=O)N(Cc3ccccc3)C(=O)[C@@H]2C1 , report its z-score.
Resp: -0.249 (inactive)

Req: Recorded z-score for CCOC(=O)C[C@H]1[C@H](OC(=O)Cc2ccc3c(c2)OCO3)[C@@H](NC(=O)c2ccc3ccccc3n2)c2cc(OCCCO)ccc2N1C(=O)c1ccccc1 , please?
Resp: -1.51 (inactive)

Req: Query: z-score; subject: C=CCOC(=O)[C@@H]1[C@H]2C(=O)O[C@H](c3ccccc3)[C@H](c3ccccc3)N2[C@H](c2ccc(OCCOC(=O)[C@@H]3C[C@@H]4C(=O)N[C@@H](CCCC[N+](C)(C)C)C(=O)N4[C@@H]3c3ccc(O)cc3)cc2)[C@@]12C(=O)Nc1ccc(I)cc12
Resp: -0.596 (inactive)

----------
# ASSAY_TEXT: JC-1 mitochondrial signal, unstimulated myeloma cells – cell-based, JC-1 fluorescence, RPMI8226, 24 h, 100 nL compound, profiling panel (AID 1169); further: test concentration not given here
# REPORTED_CONDITIONS: JC-1 mitochondrial potential fluorescence, higher = more signal
# reported z-score; entries follow
Please reply with the value in numeric form only.

Recorded results for 2 compounds are shown here.
>  <COMPOUND>
COC(=O)[C@@]1(Cc2ccc(OC)cc2)[C@H]2c3cc(C(=O)N4CCCC4)n(CCc4c[nH]c5ccc(OC)cc45)c3C[C@H]2CN1C(=O)c1ccccc1

>  <PROPERTY_LABEL>
z-score

>  <READOUT_NUMBER>
-0.819

$$$$
>  <COMPOUND>
C=CCNC(=O)[C@H]1[C@@H]2C(=O)O[C@@H](c3ccccc3)[C@@H](c3ccccc3)N2[C@@H](c2ccccc2OCCO)[C@]12C(=O)N(C(=O)OCCOC)c1ccc(C#CC3(O)CCCCCC3)cc12

>  <PROPERTY_LABEL>
z-score

>  <READOUT_NUMBER>
-1.14

$$$$

Req: Field request: z-score | item: CCCCC(CC)C(O)C1C=CC2C(=O)N(c3ccccc3)C(=O)C2N1Nc1ccc(C#N)cc1 (stereo not drawn)
Resp: 0.0604

Req: Which z-score reading was recorded for the compound CCOC(=O)C1=C[C@@H](C(C)(C)C)N(S(=O)(=O)c2ccc(C)cc2)[C@H]1c1cccc2ccccc12 ?
Resp: -0.919

Req: Requested read-out: z-score. Entry: C=CC[C@@]1(C(=O)NCCCOC)N=C(c2ccc(OCCCO)cc2)O[C@@H]1c1ccccc1N=[N+]=[N-]
Resp: -0.178

----------
# ASSAY_TEXT: Pseudomonas biofilm growth suppression – PAO1 strain, BacTiter-Glo luminescence, LB-PBS, primary screen (AID 1144)
# REPORTED_CONDITIONS: P. aeruginosa PAO1 biofilm, 12 h, higher = more signal
PROPERTY_LABEL: z-score
I'd appreciate a reply containing only the number, no unit.

Consider the reported z-score for these compounds:
>  <COMPOUND>
CC(C)NC(=O)[C@@]1(c2ccc([N+](=O)[O-])cc2)CC(=O)N(C2CCCCC2)[C@@H]1c1ccc(CO)cc1

>  <z-score>
-0.177

$$$$
>  <COMPOUND>
COc1cc(OC)c(C(O)C2C=CC3C(=O)N(Cc4ccccc4)C(=O)C3N2n2cnnc2)cc1Br (stereo not drawn)

>  <z-score>
-0.664

$$$$

Req: Requested read-out: z-score. Entry: C=CCOC(=O)[C@@]1(Cc2ccccc2)C[C@H]2CO[C@H](c3ccc(OC)cc3)N2C1=O
Resp: 0.572

Req: Returns the measured z-score for the input compound. Input: CCCCCCCCCC(O)C1C=CC2C(=O)N(c3ccccc3)C(=O)C2N1Nc1cc(OC)c(OC)c(OC)c1 (stereo not drawn)
Resp: 0.123

Req: z-score for C=CCC(OC(C)=O)[C@@H]1[C@@H](N(Cc2ccc(-c3cccc(C(F)(F)F)c3)o2)C(=O)c2ccc(-c3ccccc3)cc2)c2cc(OCCCO)ccc2N1C(=O)Cc1ccc2ccccc2c1 (stereo partly drawn) ?
Resp: -0.184

Req: Quick one: z-score of COc1cc2c(cc1O)C=[N+](Cc1sc3ccccc3c1Cl)CC2 ?
Resp: 0.206

Req: Give the measured z-score of C=C[C@H](C)[C@H](OC(=O)Nc1ccc(SC)cc1)c1ccc(OCCO)cc1 .
Resp: 0.0722

Req: What does the data say about its z-score? Entry: C=C[C@@H](OC)[C@H](OC(=O)Nc1ccc(OC)cc1)c1ccc(O)c(F)c1
Resp: -0.238

----------
Here, each record is paired with measured composite z-score data.
# ASSAY_TEXT: probe aNOTCH2 binding on compound microarray – biochemical, small-molecule microarray, 635/667 nm fluorescence, primary screen (AID 1121);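 further: score merges feature fluorescence read at 667 nm with its signal to noise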
# REPORTED_CONDITIONS: higher = more signal
Lab note: record the figure alone, no unit after it.

>  <MOLECULE>
[N-]=[N+]=Nc1ccccc1[C@H]1OC(c2ccc(OCCCO)cc2)=N[C@@]1(Cc1ccccc1)C(=O)NCCN1CCOCC1

>  <READOUT_NUMBER>
0.117

$$$$

Req: Suppose we examine the molecule O=C1N(Cc2ccccc2)c2ccccc2C[C@]12N=C(c1ccc(OCCCO)cc1)O[C@@H]2c1ccccc1 ; what composite z-score value has been reported?
Resp: -0.161

Req: What does the data say about its composite z-score? Entry: CCOC(=O)C1=C[C@@H](C(C)(C)C)N(S(=O)(=O)c2ccc(C)cc2)[C@H]1c1cccc2ccccc12
Resp: -0.101

Req: // returns reported composite z-score for input Cc1ccc(C(C)CC(O)C2C=CC3C(=O)N(c4ccccc4)C(=O)C3N2Nc2ccccc2)o1 (stereo not drawn)
Resp: -0.0303

Req: I'd like to know its composite z-score. The molecule in question is CO[C@H]1O[C@H](CO)[C@@H](OC(=O)Nc2ccc(Br)cc2)[C@@H]2OC(=O)[C@@H](Cc3ccccc3)C/C=C/C[C@H](Cc3ccccc3)C(=O)O[C@@H]12
Resp: -0.0601

Req: Fill blank: measured composite z-score of the molecule O=C1OCCC/C=C\[C@H]2OC34C=CCN(c5ccc6ccccc6c5)C(=O)[C@H]3N(CCO)C(=O)[C@@H]4C12 (stereo partly drawn) is ____.
Resp: -0.213

Req: // returns reported composite z-score for input CC(C)N1C(=O)c2ccccc2[C@@H](C(=O)NCCN2CCOCC2)[C@@H]1c1ccc(CO)cc1
Resp: -0.155

Req: Data request, read-out composite z-score, for COC(=O)c1c(CC[C@@H](CO)NC(=O)N2CCC[C@H]2Cn2cc(C3(O)CCCCC3)nn2)oc(C(C)=O)c1C(=O)OC
Resp: -0.0795
